Numbers sourced from patent US20250019453A1.

- measurementTarget: T1, hIL2Rg-his (Sino Biological, Catalog# 10555) (human, UniProt P31785 23-262)
- T1 construct: Bought; also called extracellular domain of hIL2Rg
- T1 sequence: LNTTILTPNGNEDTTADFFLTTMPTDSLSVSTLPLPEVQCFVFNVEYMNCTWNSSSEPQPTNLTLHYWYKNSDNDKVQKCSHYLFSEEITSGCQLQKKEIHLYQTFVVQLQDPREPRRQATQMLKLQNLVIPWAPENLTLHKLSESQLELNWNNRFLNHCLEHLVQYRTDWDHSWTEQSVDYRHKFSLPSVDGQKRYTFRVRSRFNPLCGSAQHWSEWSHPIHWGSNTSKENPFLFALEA
- assayRemarks: SPR Biacore T200; Mono-Fc VHH captured on Protein A chip, hIL2Rg-his analyte; 1:1 Langmuir fit
- Description: To confirm and evaluate binding affinities of the binding of the IL2Rg sdAbs, a representative example from each clonotype generated was selected for evaluation of binding via SPR. […] Calculated Rₘₐₓ values were generated using the equation: Rmax=Load (RU)×valency of ligand×(Molecular weight of analyte/Molecular weight of ligand). Surface activity was defined as the ratio of experimental/calculated Rmax. […]
Mark each entry T if its kon sits below 400000 M⁻¹ s⁻¹, and F for all others.

Use the examples below as a reference point.
binder: hIL-2Rg_VHH20 Mono-Fc VHH (Fc fusion, not shown: a dimerising Fc or GST) QVQLQESGGGSVQAGGSLRLSCTASGFTFDDSDMGWYRQAPGNECELVSTISSDGSTYYADSVKGRFTISQDNAKNTVYLQMNSLKPEDTAVYYCAAEPRGYYSNYGGRRECNYWGQGTQVTVSS
assignedCategory: T

binder: hIL-2Rg_VHH15 Mono-Fc VHH (Fc fusion, not shown: a dimerising Fc or GST) QVQLQESGGGLVQPGGSLRLSCAASGFTFSSAHMSWVRQAPGKGREWIASIYSGGGTFYADSVKGRFTISRDNAKNTLYLQLNSLKAEDTAMYYCATNRLHYYSDDDSLRGQGTQVTVSS
assignedCategory: T

binder: hIL-2Rg_VHH8 Mono-Fc VHH (Fc fusion, not shown: a dimerising Fc or GST) QVQLQESGGGSVQAGGSLRLSCVASGYTFSSYCMGWFRQAPGKEREGVAALGGGSTYYADSVKGRFTISQDNAKNTLYLQMNSLKPEDTAMYYCAAAWVACLEFGGSWYDLARYKHWGQGTQVTVSS
assignedCategory: T

binder: hIL-2Rg_VHH19 Mono-Fc VHH (Fc fusion, not shown: a dimerising Fc or GST) QVQLQESGGGSVQAGGSLRLSCTASGFTFDDREMNWYRQAPGNECELVSTISSDGSTYYADSVKGRFTISQDNAKNTVYLQMDSVKPEDTAVYYCAADFMIAIQAPGAGCWGQGTQVTVSS
assignedCategory: F

binder: hIL-2Rg_VHH21 Mono-Fc VHH (Fc fusion, not shown: a dimerising Fc or GST) QVQLQESGGGSVQAGGSLRLSCVASGYTSCMGWFRQAPGKEREAVATIYTRGRSIYYADSVKGRFTISQDNAKNTLYLQMNSLKPEDIAMYSCAAGGYSWSAGCEFNYWGQGTQVTVSS
assignedCategory: T

# next binder below
Request: Item hIL-2Rg_VHH22 Mono-Fc VHH (Fc fusion, not shown: a dimerising Fc or GST) QVQLQESGGGLVQPGGSLRLSCTASGFSFSSYPMTWARQAPGKGLEWVSTIASDGGSTAYAASVEGRFTISRDNAKSTLYLQLNSLKTEDTAMYYCTKGYGDGTPAPGQGTQVTVSS : kon beneath 400000 M⁻¹ s⁻¹, strictly?
Response: F
